Measured normalized RNA/DNA level without ligand (log10) by item
B1: library; a variant is named by its letters at N, in order (parent)
chain: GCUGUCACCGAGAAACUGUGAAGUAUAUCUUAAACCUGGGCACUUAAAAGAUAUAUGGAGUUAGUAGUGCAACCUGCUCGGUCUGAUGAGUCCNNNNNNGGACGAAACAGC

variants of: B1; test: normalized RNA/DNA level without ligand (relative to sTRSVctl = 100) (log10 (% of sTRSVctl)); HEK293T; ligand: cyclic di-GMP (c-di-GMP-II aptamer); higher = less ribozyme self-cleavage, higher mRNA level; conditions: reporter: mCherry (pCS4076), ligand present: no
Property: normalized RNA/DNA level without ligand (log10)

UCUGCC	1.8
ACCAGA	1.39
GAGCGG	1.88
AGCGGU	1.64
ACUCAA	1.52
CGUAAA	1.23
ACUUUC	1.73
AGAGAU	1.66
UCGUAG	1.63
UCGGAA	1.34
UGUUCG	1.8
UUCACA	1.81
ACCCAU	1.61
CCAGGU	1.69
GCUCGG	1.78
CCCCAU	1.68
GAUUUC	1.79
UUCCUU	1.73
GACCAU	1.64
CGCGCA	1.65
CAUAUG	1.72
UAUACA	1.71
UAUCAA	1.7
UCACCG	1.75
CGUUAA	1.22
CACACG	1.75
AUAGUC	1.68
ACACAC	1.63
GCUCUC	1.66
GCAAGC	1.63
UGACAG	1.71
UAAAUA	1.65
AGGCCC	1.86
AUGUUA	1.52
GCCACG	1.68
CUUGAC	1.69
ACACCU	1.63
ACCUUA	1.67
UUGAAA	1.61
GUGCGC	1.74
UAUCAG	1.72
UGGCCU	1.84
GACUUU	1.72
CGAGCU	1.82
UCGGGA	1.46
CAAUGA	1.53
